- experimental.target: PAD2 (Homo sapiens, UniProt Q9Y2J8)
- Construct: made in house
- Sequence (Q9Y2J8 whole entry): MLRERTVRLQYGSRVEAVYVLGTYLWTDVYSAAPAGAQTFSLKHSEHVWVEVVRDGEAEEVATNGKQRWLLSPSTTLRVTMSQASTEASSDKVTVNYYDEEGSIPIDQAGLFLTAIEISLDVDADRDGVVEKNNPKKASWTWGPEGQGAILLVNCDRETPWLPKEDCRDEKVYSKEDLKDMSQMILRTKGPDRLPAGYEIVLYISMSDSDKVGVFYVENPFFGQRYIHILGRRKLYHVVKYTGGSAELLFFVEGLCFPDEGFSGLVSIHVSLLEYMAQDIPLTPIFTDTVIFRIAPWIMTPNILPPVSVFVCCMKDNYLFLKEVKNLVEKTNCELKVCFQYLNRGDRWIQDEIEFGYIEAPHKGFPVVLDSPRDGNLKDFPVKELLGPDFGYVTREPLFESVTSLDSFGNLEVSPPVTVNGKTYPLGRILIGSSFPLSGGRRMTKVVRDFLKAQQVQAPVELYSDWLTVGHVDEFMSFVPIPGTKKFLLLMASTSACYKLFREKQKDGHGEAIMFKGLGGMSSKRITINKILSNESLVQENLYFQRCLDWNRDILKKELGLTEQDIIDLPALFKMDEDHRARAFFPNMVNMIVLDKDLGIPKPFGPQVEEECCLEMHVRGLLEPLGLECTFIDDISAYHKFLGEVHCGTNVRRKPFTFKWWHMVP
- protocol.description: Inactivation kinetics, PAD2
- Format: biochemical
- experimental.parameters: kinact/KI relative to least inhibited isozyme (1.0)
reported.endpoint: Fold PAD2 Selectivity (fold)

Examples with their reported Fold PAD2 Selectivity follow.
>  <compound>
N=C(CF)NCCC[C@H](NC(=O)c1ccc(-c2ccccc2)cc1)c1nc2ccccc2[nH]1 [Compound 5e]

>  <Fold PAD2 Selectivity (fold)>
1.3

$$$$
>  <compound>
CCN1Cc2cccc(C(=O)N[C@@H](CCCNC(=N)CCl)c3nc4ccccc4[nH]3)c2C1=O [Compound 8b]

>  <Fold PAD2 Selectivity (fold)>
1.5

$$$$
>  <compound>
N=C(CCl)NCCC[C@H](NC(=O)c1ccc(-c2ccc(F)cc2)cc1)c1nc2ccccc2[nH]1 [Compound 5p]

>  <Fold PAD2 Selectivity (fold)>
1.0

$$$$

I: Cn1c([C@H](CCCNC(=N)CCl)NC(=O)c2ccccc2C(=O)OC(C)(C)C)nc2ccccc21 [Compound 9b]
II: COc1ccc2c(c1)nc([C@H](CCCNC(=N)CCl)NC(=O)c1cccc3c1C(=O)NC3)n2C [Compound 7p]
-- ask // compare measured Fold PAD2 Selectivity between I and II ; output the lower one Kindly give the label for the entry you pick.
-- reply I
(I: 1.0 fold, II: 10 fold)
